# Test system: Fibroblast
# measurement.description: Multiplex assay against human fibroblast
# Assay type: toxicity, cell-based
# run.parameters: 12 h, 10 µM, compound concentration 10 uM, replicate 2
Assign Population Fragmented Nuclei (%) to each entry below.
Response body: numeric value in %, unit text excluded.

API: value(readout=Population Fragmented Nuclei (%), system=Fibroblast) for record `S=C(NCCCc1c[nH]cn1)NCCCN(Cc1ccc(Cl)c(Cl)c1)c1ccc(Br)cn1` 25

API: value(readout=Population Fragmented Nuclei (%), system=Fibroblast) for record `CN1CCN(C(=O)C(C)(C)c2ccc(C(=O)Nc3cn4cc(-c5cc(C(C)(C)C)cc(C(C)(C)C)c5)ccc4n3)cc2)CC1` 40

API: value(readout=Population Fragmented Nuclei (%), system=Fibroblast) for record `O=C(Nc1ccc(Cl)cc1)Nc1cccc(-c2cccc(N3CCCC3)n2)c1` 3
